Target: T1, PSMA Fab (biotinylated (site not stated))
T1 construct: also called Anti-PSMA Fab; 006 PSMA Fab
Assay: clonal phage ELISA; PSMA Fab wells pre-incubated with PSMA antigen as competitor; anti-M13-HRP detection
Where no end group is shown, it is not given here.
Entries whose Phage binding ELISA signal, Anti-PSMA Fab with PSMA antigen is below 0.07 take t; entries at or above 0.07 take f.

Binder: IANWCTPQWMCDGF [Phage-2620]
Class Assignment: t

Binder: VTKLCIPEWMCASD (cysteine pairing not given here; also: displayed on phage as pIII fusion) [Phage-2630]
Class Assignment: f

Binder: PETRCIPSWMCSGM [Phage-2625]
Class Assignment: f

Binder: FHMWCTPAWMCADQ (cysteine pairing not given here; also: displayed on phage as pIII fusion) [Phage-2622]
Class Assignment: f

Binder: VMSWCVPAWMCETP [Phage-2631]
Class Assignment: t

Binder: TPKWCTPPWMCQHG [Phage-2623]
Class Assignment: f

Binder: WEKWCTPSGMCDAR [Phage-2627]
Class Assignment: f
